target: Chromo domain-containing protein 1 (Saccharomyces cerevisiae (strain ATCC 204508 / S288c) (Baker's yeast)); experiment: ScCHD-1 Enzyme Inhibition Assay; assay type: functional; design: scale not given: in the data most compounds retested in dose-response had high values; conditions: 30 µM
List of Percent Effect values.
# output: bare number, implied unit %

Worked set:
In [3]: df
Out[3]:
                                   compound  unit_abbrev  reported_measurement
0                 COCCOCC(=O)Nc1ccc(Br)cc1F            %                 -2.27
1  CO[C@@H]1CC[C@H]2[C@H]1OCCN2C(=O)C1=CCCC1            %                 -6.88
2  CCn1c(CN2CCC(O)(C(=O)OC)CC2)nc2c(F)cccc21            %                 -12.4
3  Cc1cc(C)n(CCCNC(=O)C(C)NC(=O)c2ccccc2Cl)n1 (configuration not stated)            %                 -5.43

The reported Percent Effect of the compound `CCCS(=O)(=O)N1CCO[C@H]2[C@H](OCc3ccccn3)CC[C@@H]21` was -2.32

The reported Percent Effect of the compound `CO[C@@H]1CC[C@H]2[C@H]1OCCN2C(=O)c1ccc(C)o1` was -14

---

List of Percent Effect values.
Target: Ubiquitin-activating enzyme e1, putative (Leishmania donovani (strain BPK282A1)) (UniProt E9BSI1)
Sequence (whole entry): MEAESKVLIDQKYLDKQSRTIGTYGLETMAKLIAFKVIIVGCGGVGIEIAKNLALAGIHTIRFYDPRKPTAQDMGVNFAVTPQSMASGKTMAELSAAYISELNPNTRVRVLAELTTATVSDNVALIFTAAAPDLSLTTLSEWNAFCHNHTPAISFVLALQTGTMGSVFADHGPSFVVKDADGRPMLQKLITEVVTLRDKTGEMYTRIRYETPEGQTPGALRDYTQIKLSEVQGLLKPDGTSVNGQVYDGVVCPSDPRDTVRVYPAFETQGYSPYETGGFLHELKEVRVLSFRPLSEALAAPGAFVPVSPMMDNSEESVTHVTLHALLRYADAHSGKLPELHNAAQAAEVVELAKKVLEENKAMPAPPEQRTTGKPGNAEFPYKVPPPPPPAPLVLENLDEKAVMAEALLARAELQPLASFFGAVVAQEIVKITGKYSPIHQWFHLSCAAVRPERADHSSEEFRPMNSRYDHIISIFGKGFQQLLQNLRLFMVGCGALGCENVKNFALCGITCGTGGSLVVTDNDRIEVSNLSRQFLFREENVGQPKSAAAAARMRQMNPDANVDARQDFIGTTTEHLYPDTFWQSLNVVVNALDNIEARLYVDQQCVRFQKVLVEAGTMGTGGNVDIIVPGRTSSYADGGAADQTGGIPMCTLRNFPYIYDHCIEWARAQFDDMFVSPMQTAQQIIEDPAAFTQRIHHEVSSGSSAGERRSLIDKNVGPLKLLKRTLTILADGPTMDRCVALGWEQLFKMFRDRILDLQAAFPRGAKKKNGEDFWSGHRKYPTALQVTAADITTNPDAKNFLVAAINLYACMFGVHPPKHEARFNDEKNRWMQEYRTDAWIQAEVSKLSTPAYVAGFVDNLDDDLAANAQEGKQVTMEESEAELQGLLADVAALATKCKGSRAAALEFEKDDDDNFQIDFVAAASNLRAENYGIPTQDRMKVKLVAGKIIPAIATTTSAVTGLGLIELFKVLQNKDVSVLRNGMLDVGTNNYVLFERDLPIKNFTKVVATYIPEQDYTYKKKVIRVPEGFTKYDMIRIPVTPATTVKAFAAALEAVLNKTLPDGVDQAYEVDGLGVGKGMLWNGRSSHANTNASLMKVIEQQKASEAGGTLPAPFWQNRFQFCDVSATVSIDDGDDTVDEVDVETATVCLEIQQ
Assay: Leishmania donovani Ubiquitin Activating Enzyme (LdE1)
Format: functional
Set-up: scale not given: direction of the effect not stated beside the values
Conditions: 30 µM
Measured potencies and affinities stand elsewhere.
# output: bare number, implied unit %

Worked set:
                                   compound    readout_name  reported_measurement
0  CCc1nc(CN2CCCC(N(C)Cc3cnn(C)c3)C2)no1 (configuration not stated)  Percent Effect                  8.22
1   Cn1cccc1C(=O)N1CCN(Cc2ccncc2)c2ncccc2C1  Percent Effect                  13.3
2    CCn1cnnc1C1CCN(C(=O)c2cccc3c2ccn3C)CC1  Percent Effect                  18.2
3       N#CC1(C(=O)N2CCN(c3nccs3)CC2)CCCCC1  Percent Effect                  13.2
4  Cc1ccc(NS(=O)(=O)c2cc3c(c(C(=O)O)c2)OCCO3)c(F)c1  Percent Effect                  13.2
5  CNc1cccc(C2CCCN(C(=O)c3ccncc3)C2)n1 (configuration not stated)  Percent Effect                  6.76
6  CC(C)C(=O)N1CCN(C(=O)CCc2nnc(-c3ccccc3)o2)CC1  Percent Effect                  5.06
7  CCn1nc(CC(C)C)cc1C(=O)N1C[C@H](O)[C@@H](N2CCCCC2)C1  Percent Effect                    16
8  Cc1ccsc1CNc1cc(N2CCCC2CO)ncn1 (configuration not stated)  Percent Effect                  11.4
9  CNc1cc2c(nn1)CCN(C(=O)c1ccc(-n3nccc3C)cc1)C2  Percent Effect                  7.79

The reported Percent Effect of the compound Cc1nn(C)c(N2CCOCC2)c1CNC1CCOc2ccccc21 (configuration not stated) was 10.1

The reported Percent Effect of the compound CN(C)C(=O)NC1COC2(CCN(Cc3ccccc3)CC2)C1 (configuration not stated) was 0

---

List of Percent Effect values.
target: Arginase-2, mitochondrial (Homo sapiens) (UniProt P78540); test: in vitro enzyme assay to detect the production of urea directly proportional to the activity of Arginase II; type: functional; design: scale not given: in the data most compounds retested in dose-response had high values; conditions: 33.3 µM
Sequence (P78540 whole entry): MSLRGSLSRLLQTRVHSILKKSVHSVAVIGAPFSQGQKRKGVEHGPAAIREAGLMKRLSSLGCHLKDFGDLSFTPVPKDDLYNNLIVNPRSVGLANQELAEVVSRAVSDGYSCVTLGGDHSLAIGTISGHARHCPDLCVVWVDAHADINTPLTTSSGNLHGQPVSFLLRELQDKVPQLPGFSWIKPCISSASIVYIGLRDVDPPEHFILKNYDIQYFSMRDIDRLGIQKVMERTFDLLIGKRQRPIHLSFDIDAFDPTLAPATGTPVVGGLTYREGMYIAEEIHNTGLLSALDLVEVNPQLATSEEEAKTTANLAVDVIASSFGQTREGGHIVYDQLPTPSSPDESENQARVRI
# output: bare number, implied unit %

Worked set:
                                   compound  unit_abbrev  reported_measurement
0   COc1c(CNCc2cccc(CS(C)(=O)=O)c2)c(C)nn1C            %                   1.2
1        CCCn1nc2c(cc1=O)CN(Cc1cc(C)on1)CC2            %                  7.08
2  O=C(N1CCCCC1)N1CCN(CC(O)c2ccc(F)cc2)CC1 (stereo not drawn)            %                  4.21
3  O=C(NCc1ccccc1)N1CCC2(CC(=O)N(c3ccsc3)C2)C1 (stereo not drawn)            %                 0.417
4  NC(=O)CN1CCCN(C(=O)c2ccn(-c3ccccc3)n2)CC1            %                  9.71
5           CCN(CC)C(=O)Nc1cc2c(cc1SC)OCCO2            %                  27.5
6  CS(=O)(=O)NC[C@]12COC[C@H]1CN(CC1CCCC1)C2            %                  1.59

Field: next compound
The reported Percent Effect of the compound CC(C)c1nc(C2CCCN2CC(=O)N2CCNC2=O)no1 (stereo not drawn) was 1.15

---

target: Arginase-2, mitochondrial (Homo sapiens) (UniProt P78540); assay: in vitro enzyme assay to detect the production of urea directly proportional to the activity of Arginase II; type: functional; parameters: scale not given: in the data most compounds retested in dose-response had high values; details: 33.3 µM
readout.name: Percent Effect (%)
# output: bare number, implied unit %

                                   molecule  unit_abbrev  reported_measurement
0  O=C(CCC1CCCO1)NCc1ccnc(-n2cccn2)c1 (stereo unspecified)            %                 -1.44
1  O=C(CCCc1cn[nH]c1)N1C[C@@H](CN2CCOCC2)[C@@H](CO)C1            %                 -2.27
2  COCC(O)CNC(=O)c1coc(COc2ccc3sc(C)nc3c2)n1 (stereo unspecified)            %                  5.46
3           O=C(NCCC1=CCCCC1)NCc1nnc2n1CCC2            %                  7.91
4  CN(C)CCN(Cc1cccc(C(F)(F)F)c1)C(=O)c1cc[nH]n1            %                  2.65
5  COCCN1CCC(NCc2cccnc2)C1 (stereo unspecified)            %                  2.49
6  COc1ccc(CN2CCCC(Nc3cccc(F)c3)C2)cc1O (stereo unspecified)            %                -0.744
7  O=S(=O)(NCC1CCN(c2cnccn2)CC1)c1c(F)cccc1F            %                  9.68
8  CS(=O)(=O)NC1CCc2c(ccc(=O)n2CC2CC2)C1 (stereo unspecified)            %                  2.56
9  Cc1ccc(CS(=O)(=O)N2CC[C@H]3[C@H]2CCN3C)cc1            %                -0.399

The reported Percent Effect of the molecule CC(CNC(=O)c1cccnc1Oc1cccnc1)N(C)C (stereo unspecified) was 10

src = ChEMBL document CHEMBL3988442
